- assay_details: yeast display, Sf9 membrane polyspecificity reagent, FACS + sequencing; frameworks hold sequencing errors
property: polyreactivity (PSR sort gate)

Request: Entry under review: `QVQLVESGGGLVQAGGSLRLSCAASGFTCTRNAMGWFRQAPGKERELVAAISSSAGSTSYADSVKGRFTISRDNAKNTDYLQMNSLKPEDTAVYYCATEGSYYSWVGKVGYRYQYHYWGQGTQVTVSS` . Reported polyreactivity (PSR sort gate)?
Response: high polyreactivity

Request: Item `QVQLVESGGGLVQAGGSLRLSCAASGFTFDTYAMGWYRQAPGKERELVAAISWGGGSTFYADSVKGRFTISRDNAKNTVYLQMNSLKPEDTAVYYCAAEIPGYYVFNYGYWYYEYDYWGQGTQVTVSS` has what recorded polyreactivity (PSR sort gate)?
Response: high polyreactivity

Request: Reported polyreactivity (PSR sort gate) for `QVQLVESVGGLVQAGGSLRLSCAASGFIFYGYAMGWYRQAPGKERELVAAISRSGTSTYYADSVKGRFTISRDNAKNTVYLQMNSLKPEDTAVYYCAADYVGWKWGSRGAIYKHYYWGQGTQVTVSS` : what is it?
Response: high polyreactivity

* * *

- assay_details: yeast display, Sf9 membrane polyspecificity reagent, FACS + sequencing; frameworks hold sequencing errors
property: polyreactivity (PSR sort gate)

Request: Look up polyreactivity (PSR sort gate): `QFQLVESGGGLVQAGGSLRLSCAASVSTVVIYDMGWYRQAPGKERELVAAISYSGGSTYYADSVKGRFTITRDNAKNTVYLQMNSLKPEDTAVYYCNAGVLVLLYAYLPSDLEYWGQGTQVTVSS`
Response: low polyreactivity

Request: What does the data say about its polyreactivity (PSR sort gate)? Entry: `QVQLVESGGGLVQAGGSLRLSCAASGSISVFYAMGWYRQAPGKEREFVAAISWRGGRTYYEDSVKARFTISRDNANNTVYLQMNSLKPEDTAVYYCAKDIVRGRSSRYDYWGQGTQVTVSS`
Response: high polyreactivity

Request: Could you tell me which polyreactivity (PSR sort gate) is on file for `HVQLQETGGGLVQAGGCLSCTASGTIFGQGDMGWYRPAPGKERELVATINDGASTYYADSVKGRFTISRDKAKNTVYLQKNSLKPDDTAVNYCAVFTDITTYFGYWGQGTQVTVSS` ?
Response: low polyreactivity

Request: // lookup polyreactivity (PSR sort gate) for `QVQRVESGGGLVQAGVSLRLSCAASGITFVPYAMGWYRQAPGKERELVAAISSSGGSTYYADSVKGRFTISRDNAKNTVYLQMNSLKPEDTAVYFCNVPTHSYIGMDYWGQGTQVTVSS`
Response: low polyreactivity

Moving on to another sequence below.
Request: Sample `QVQLVESGGGLVQSGGSLRLSCAASGSILKPYAMGWYRQAPGKERELVAAIRSSGGRTNYADSVKGRFTISRDNAKNSVYLQMNSLKPEDTAVYYCAAGYVSYWYYRYDYWGQGTQVTVSS` — what was its polyreactivity (PSR sort gate)?
Response: high polyreactivity

* * *

- assay_details: yeast display, Sf9 membrane polyspecificity reagent, FACS + sequencing; frameworks hold sequencing errors
property: polyreactivity (PSR sort gate)

Solved entries (count: 4):
Request: Entry under review: `QVQLVESGGGLVQAGGSLRLSCAASGSTFAWYAMGWYRQAPGKERELVAGIWNTGRTYYADSVKGRFTISRDNAKNTVYLLMHSLKPEDTAVYYCAALYNSPNVTYYYWGQGTQVTVSS` . Reported polyreactivity (PSR sort gate)?
Response: high polyreactivity

Request: Fill blank: measured polyreactivity (PSR sort gate) of the sequence `QVQLVESGRGLVQAGGSLRLSCAASGRIFYYNDMGWYRQAPGKERELVASITGSGGSTYYADSVKGRFTISRDNAKNTVYLQMNSLKPEDTAVYYCAKREYLYPYYYVAKYDYWGQGTQVTVSS` is ____.
Response: low polyreactivity

Request: Would you mind telling me what polyreactivity (PSR sort gate) value was observed for `QVQLVESGGGLVQARGSLRLSCAATGSTFDKYAMGRYRQAPGKERELVAAISSSGTRTYYADSVKGRFTISRDNAKITVYLQMNSLKPEDTAVYYCDTGGSNKYYYWGQGTQVTVSS` ?
Response: high polyreactivity

Request: What does the record list as polyreactivity (PSR sort gate) for `QVQLVESGGGLVQAGGSLRLSCAASGLIFESYVMGWYRQAPGKERELVAAIRSSGGSTYYADSVKGRFTISRDNAKNTVYLQMNSLKPEVTAVYYCSVKGYGEYDYWGQGTQVTVSS` ?
Response: low polyreactivity

Read the next record carefully.
Request: polyreactivity (PSR sort gate) lookup needed for `QLQLVETGGGLVQAGGSLRLSCASSGRTFTAYAMVWYREAAGKESELVAAITLSGGRTYYADSVKGRFTISRDNAKNTVYLQMNSLKPEDTAVYYCATDYYWGQGTQVTVSS` , thanks.
Response: high polyreactivity

Where do the numbers come from? From the nanobody polyreactivity screen of Harvey et al. (2022).
